Readings of IC50 for the listed compounds
# test_name: Inhibition of Escherichia coli RNAP assessed as incorporation of [5,6-3H]UTP preincubated for 10 mins followed by DNA template and ATP, CTP, GTP, UTP, [5,6-3H]UTP addition measured after 10 mins by scintillation counting analysis
# test_conditions: read-out: IC50
Please give a number only; it is taken to be in µM.

Example results:
// query IC50 value for entry O=C(Nc1cccc(O)c1C(=O)O)c1ccc(-c2ccccc2)cc1
// result 74

// query IC50 value for entry O=C(Nc1cc(-c2ccc(Cl)cc2)sc1C(=O)O)c1ccc(-c2ccccc2)cc1
// result 13

// query IC50 value for entry O=C(O)c1cc(Br)cc(NC(=O)c2ccc(-c3ccccc3)cc2)c1
// result 110

// query IC50 value for entry COc1ccc(-c2cc(NC(=O)c3ccc(-c4ccccc4)cc3)c(C(=O)O)s2)cc1
// result 9

Query compound follows.
// query IC50 value for entry O=C(O)c1cc(Br)ccc1NS(=O)(=O)c1ccc(-c2ccccc2)cc1
// result 35

* * *

# System: Escherichia coli
# test_name: Inhibition of Escherichia coli RNAP assessed as incorporation of [5,6-3H]UTP at 200 uM preincubated for 10 mins followed by DNA template and ATP, CTP, GTP, UTP, [5,6-3H]UTP addition measured after 10 mins by scintillation counting analysis
Calls of active or inactive are those of the source. The rule behind the calls is not given here.
result_type: inhibition

Example results:
// query inhibition value for entry O=C(Nc1cscc1C(=O)O)c1ccc(-c2ccccc2)cc1
// result 33%

// query inhibition value for entry CCN(CC)S(=O)(=O)c1cccc(C(=O)Nc2cccc(OC)c2C(=O)O)c1
// result inactive

// query inhibition value for entry CCN(CC)S(=O)(=O)c1cc(C(=O)Nc2ccccc2C(=O)O)ccc1Br
// result inactive

// query inhibition value for entry CCc1ccc(C(=O)Nc2ccccc2C(=O)O)cc1S(=O)(=O)N(CC)CC
// result inactive

// query inhibition value for entry O=C(O)c1ccc(Br)c(NC(=O)c2ccc(-c3ccccc3)cc2)c1
// result 25%

// query inhibition value for entry CCN(CC)S(=O)(=O)c1cc(C(=O)Nc2ccccc2C(=O)O)ccc1C
// result inactive

// query inhibition value for entry CCN(CC)S(=O)(=O)c1cccc(C(=O)Nc2ccc(C#N)cc2C(=O)O)c1
// result inactive

Query compound follows.
// query inhibition value for entry CCN(CC)C(=O)c1cccc(C(=O)Nc2ccccc2C(=O)O)c1
// result inactive
